Biological target: AR protein (Homo sapiens, UniProt P10275, T878A)
Construct: degradation activity of the compounds disclosed in the present disclosure on AR protein in LNCaP cells; host or cells: LNCaP FGC
Sequence (P10275 whole entry T878A): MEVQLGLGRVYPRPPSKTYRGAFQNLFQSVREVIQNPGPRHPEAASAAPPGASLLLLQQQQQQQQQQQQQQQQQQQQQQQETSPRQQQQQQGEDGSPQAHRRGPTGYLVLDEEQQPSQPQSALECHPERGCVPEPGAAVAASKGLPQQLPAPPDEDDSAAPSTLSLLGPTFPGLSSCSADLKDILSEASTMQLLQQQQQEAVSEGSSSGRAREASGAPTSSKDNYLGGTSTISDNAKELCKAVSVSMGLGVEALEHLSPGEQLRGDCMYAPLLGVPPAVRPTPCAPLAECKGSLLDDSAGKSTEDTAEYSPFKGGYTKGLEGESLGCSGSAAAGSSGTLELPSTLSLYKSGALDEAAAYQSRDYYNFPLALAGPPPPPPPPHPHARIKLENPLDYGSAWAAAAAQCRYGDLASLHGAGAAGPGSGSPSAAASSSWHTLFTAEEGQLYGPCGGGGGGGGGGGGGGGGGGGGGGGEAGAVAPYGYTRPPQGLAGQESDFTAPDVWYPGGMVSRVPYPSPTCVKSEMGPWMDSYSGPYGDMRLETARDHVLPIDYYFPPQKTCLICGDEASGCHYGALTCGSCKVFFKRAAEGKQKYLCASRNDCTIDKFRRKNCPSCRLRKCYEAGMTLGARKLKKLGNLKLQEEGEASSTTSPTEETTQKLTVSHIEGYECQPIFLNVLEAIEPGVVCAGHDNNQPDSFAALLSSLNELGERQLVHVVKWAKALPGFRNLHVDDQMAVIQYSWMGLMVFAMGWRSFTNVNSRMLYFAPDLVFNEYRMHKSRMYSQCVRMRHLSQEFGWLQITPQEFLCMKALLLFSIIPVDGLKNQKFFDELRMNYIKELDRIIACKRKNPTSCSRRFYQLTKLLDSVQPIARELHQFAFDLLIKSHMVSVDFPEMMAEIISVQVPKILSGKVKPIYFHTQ
Assay: Degradation of AR protein in LNCaP cells (Western blot)
Format: cell-based
Settings: LNCaP cells, compound 10 nM, 8 hours, Western blot grayscale, GAPDH internal reference; read-out: Degradation rates of the AR protein in LNCaP cells, 10 nM (%)
Consider the following molecules; for each one, report its inhibition at 0.01 µM.
Answers are plain numbers, in %.

Some molecules with known inhibition at 0.01 µM results, for comparison:
| molecule | inhibition at 0.01 µM, % |
| --- | --- |
| N#Cc1ccc(O[C@H]2CC[C@H](NC(=O)c3ccc(N4CCC(F)(CN5CCC6(CCc7ccc8c(c7O6)CN(C6CCC(=O)NC6=O)C8=O)CC5)CC4)nn3)CC2)cc1Cl (stereo partly shown) | 36 |
| CC1(CN2CCC3(CC2)COc2c3ccc3c2CN(C2CCC(=O)NC2=O)C3=O)CCN(c2ncc(C(=O)N[C@H]3CC[C@H](Oc4ccc(C#N)c(Cl)c4)CC3)cn2)CC1 (stereo partly shown) | 18 |

Give inhibition at 0.01 µM for all molecules that follow.
1. CC1(CN2CCC3(CC2)COc2c3ccc3c2C(=O)N(C2CCC(=O)NC2=O)C3=O)CCN(c2ncc(C(=O)NC3CCC(Oc4ccc(C#N)c(Cl)c4)CC3)cn2)CC1 (stereo not shown)
2. COc1cc(O[C@H]2C(C)(C)[C@H](NC(=O)c3ccc(N4CCC(CN5CCC6(CCc7cc8c(cc7O6)C(=O)N(C6CCC(=O)NC6=O)C8=O)CC5)CC4)cc3)C2(C)C)ccc1C#N (stereo partly shown)
3. COc1cc(O[C@H]2C(C)(C)[C@H](NC(=O)c3ccc(N4CCC(F)(CN5CC6(CCc7ccc8c(c7O6)C(=O)N(C6CCC(=O)NC6=O)C8=O)C5)CC4)cc3)C2(C)C)ccc1C#N (stereo partly shown)
4. COC1(CN2CCC3(CCc4ccc5c(c4O3)CN(C3CCC(=O)NC3=O)C5=O)CC2)CCN(c2ccc(C(=O)N[C@H]3CC[C@H](Oc4ccc(C#N)c(Cl)c4)CC3)nn2)CC1 (stereo partly shown)
5. N#Cc1ccc(O[C@H]2CC[C@H](NC(=O)c3ccc(N4CCC(CN5CC6(CCc7cc8c(cc7O6)C(=O)N(C6CCC(=O)NC6=O)C8)C5)CC4)nn3)CC2)cc1Cl (stereo partly shown)
6. N#Cc1ccc(O[C@H]2CC[C@H](NC(=O)c3ccc(N4CCC5(CC4)COc4c5ccc5c4CN(C4CCC(=O)NC4=O)C5=O)nn3)CC2)cc1Cl (stereo partly shown)

[2, 55, -3, 45, 78, 44]

Report inhibition at 0.01 µM for every entry below.
1. COc1cc(O[C@H]2C(C)(C)[C@H](NC(=O)c3ccc(N4CCC(C#N)(CN5CCC6(CC5)COc5c6ccc6c5C(=O)N(C5CCC(=O)NC5=O)C6=O)CC4)cc3)C2(C)C)ccc1C#N (stereo partly shown)
2. N#Cc1ccc(O[C@H]2CC[C@H](NC(=O)c3ccc(N4CC5(CCc6cc7c(cc6O5)C(=O)N(C5CCC(=O)NC5=O)C7=O)C4)nn3)CC2)cc1Cl (stereo partly shown)

28
58

---

Target: AR protein (Homo sapiens)
Construct: degradation activity of the compounds disclosed in the present disclosure on AR protein in VCaP cells; host or cells: VCaP
Test: Degradation of AR protein in VCaP cells (Western blot)
Type: cell-based
Settings: compound at 10 nM, 8 hours, read-out: Degradation rate of the AR protein in VCaP cells, 10 nM (%)
quantity: inhibition at 0.01 µM (%)
Give bare numbers, in %.

Past entries and their recorded results:
| molecule | assayed target | quantity | unit symbol | measured |
| --- | --- | --- | --- | --- |
| COc1cc(O[C@H]2C(C)(C)[C@H](NC(=O)c3ccc(N4CCC(C)(CN5CCC6(CC5)COc5cc7c(cc56)C(=O)N(C5CCC(=O)NC5=O)C7=O)CC4)cc3)C2(C)C)ccc1C#N (stereo partly drawn) | AR protein (Homo sapiens) | inhibition at 0.01 µM | % | 7 |
| COc1cc(O[C@H]2C(C)(C)[C@H](NC(=O)c3ccc(N4CCC(F)(CN5CC6(CCc7cc8c(cc7O6)C(=O)N(C6CCC(=O)NC6=O)C8=O)C5)CC4)cc3)C2(C)C)ccc1C#N (stereo partly drawn) | AR protein (Homo sapiens) | inhibition at 0.01 µM | % | 7 |

Please list inhibition at 0.01 µM recorded for the molecule COc1cc(O[C@H]2C(C)(C)[C@H](NC(=O)c3ccc(N4CCC(C)(CN5CC6(CCc7cc8c(cc7O6)C(=O)N(C6CCC(=O)NC6=O)C8=O)C5)CC4)cc3)C2(C)C)ccc1C#N (stereo partly drawn)
21
